Data credit: patent US20250011363A1

Target: acetylcholine receptor (Homo sapiens, UniProt P02708)
Sequence (P02708 21-457): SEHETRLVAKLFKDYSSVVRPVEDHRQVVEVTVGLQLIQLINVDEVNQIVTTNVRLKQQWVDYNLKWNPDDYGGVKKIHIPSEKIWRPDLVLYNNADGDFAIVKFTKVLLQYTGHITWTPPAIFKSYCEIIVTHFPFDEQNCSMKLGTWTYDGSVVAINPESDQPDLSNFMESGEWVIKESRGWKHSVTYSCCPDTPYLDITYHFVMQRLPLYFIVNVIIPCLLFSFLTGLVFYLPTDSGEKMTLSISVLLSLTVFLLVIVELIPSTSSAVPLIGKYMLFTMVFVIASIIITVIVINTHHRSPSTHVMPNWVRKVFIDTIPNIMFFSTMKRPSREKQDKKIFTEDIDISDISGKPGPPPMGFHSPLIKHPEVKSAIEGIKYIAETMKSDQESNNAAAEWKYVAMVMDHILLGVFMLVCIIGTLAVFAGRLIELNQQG
Assay: SPR binding affinity (RU) of optimized 5mer/6mer/7mer peptides, Examples 6-7
Conditions: SPR, Resonance Units; peptides tested at 10 μM; 6mer-1 Bottom sequence
Method: Based on the frequencies of occurrence of the top 7 amino acids from Table 7 in Example 5, 600 peptides comprising these amino acids (top combinations) and those comprising the 13 less frequently occurring amino acids (bottom combinations) were synthesized for each series of 5mer, 6mer-1, and 6mer-2. The binding affinity of each sequence for the acetylcholine receptor was measured using Surface Plasmon Resonance (SPR) analysis method. The peptides were tested at a concentration of 10 μM. […]
property-name: Binding affinity (Ru)

[[record]]
substance = "6mer-1-1075 (KKPSVK)"
assayed_system = "acetylcholine receptor (Homo sapiens, UniProt P02708)"
reading_unit = "Ru"
readout_number = 38

[[record]]
substance = "6mer-1-1055 (KRCNDK)"
assayed_system = "acetylcholine receptor (Homo sapiens, UniProt P02708)"
reading_unit = "Ru"
readout_number = 40

[[record]]
substance = "6mer-1-1041 (RKEHGK)"
assayed_system = "acetylcholine receptor (Homo sapiens, UniProt P02708)"
reading_unit = "Ru"
readout_number = 23

[[record]]
substance = "6mer-1-1180 (KRPPPK)"
assayed_system = "acetylcholine receptor (Homo sapiens, UniProt P02708)"
reading_unit = "Ru"
readout_number = 34

[[record]]
substance = "6mer-1-1154 (RKCEKR)"
assayed_system = "acetylcholine receptor (Homo sapiens, UniProt P02708)"
reading_unit = "Ru"
readout_number = 41

[[record]]
substance = "6mer-1-1195 (KRDEDK)"
assayed_system = "acetylcholine receptor (Homo sapiens, UniProt P02708)"
reading_unit = "Ru"
readout_number = 25

[[record]]
substance = "6mer-1-1188 (RRMNER)"
assayed_system = "acetylcholine receptor (Homo sapiens, UniProt P02708)"
reading_unit = "Ru"
readout_number = 41

[[record]]
substance = "6mer-1-1054 (RRMKVK)"
assayed_system = "acetylcholine receptor (Homo sapiens, UniProt P02708)"
reading_unit = "Ru"
readout_number = 37

[[record]]
substance = "6mer-1-1064 (RKPTAK)"
assayed_system = "acetylcholine receptor (Homo sapiens, UniProt P02708)"
reading_unit = "Ru"
readout_number = 41

[[record]]
substance = "6mer-1-1142 (KKETPR)"
assayed_system = "acetylcholine receptor (Homo sapiens, UniProt P02708)"
reading_unit = "Ru"
readout_number = 24

[[record]]
substance = "6mer-1-1012 (RRAWVR)"
assayed_system = "acetylcholine receptor (Homo sapiens, UniProt P02708)"
reading_unit = "Ru"
readout_number = 35

[[record]]
substance = "6mer-1-1131 (RKDNIK)"
assayed_system = "acetylcholine receptor (Homo sapiens, UniProt P02708)"
reading_unit = "Ru"
readout_number = 42

[[record]]
substance = "6mer-1-1050 (KKMEDR)"
assayed_system = "acetylcholine receptor (Homo sapiens, UniProt P02708)"
reading_unit = "Ru"
readout_number = 38

[[record]]
substance = "6mer-1-1114 (KKFNFK)"
assayed_system = "acetylcholine receptor (Homo sapiens, UniProt P02708)"
reading_unit = "Ru"
readout_number = 38

[[record]]
substance = "6mer-1-1187 (RRHAHK)"
assayed_system = "acetylcholine receptor (Homo sapiens, UniProt P02708)"
reading_unit = "Ru"
readout_number = 26

[[record]]
substance = "6mer-1-1186 (KKNNAK)"
assayed_system = "acetylcholine receptor (Homo sapiens, UniProt P02708)"
reading_unit = "Ru"
readout_number = 37

[[record]]
substance = "6mer-1-1115 (RKCAFR)"
assayed_system = "acetylcholine receptor (Homo sapiens, UniProt P02708)"
reading_unit = "Ru"
readout_number = 43

[[record]]
substance = "6mer-1-1101 (RRECDK)"
assayed_system = "acetylcholine receptor (Homo sapiens, UniProt P02708)"
reading_unit = "Ru"
readout_number = 37

[[record]]
substance = "6mer-1-1149 (RKMTPK)"
assayed_system = "acetylcholine receptor (Homo sapiens, UniProt P02708)"
reading_unit = "Ru"
readout_number = 30

[[record]]
substance = "6mer-1-1168 (KKEKFR)"
assayed_system = "acetylcholine receptor (Homo sapiens, UniProt P02708)"
reading_unit = "Ru"
readout_number = 40

[[record]]
substance = "6mer-1-1182 (KKTCHR)"
assayed_system = "acetylcholine receptor (Homo sapiens, UniProt P02708)"
reading_unit = "Ru"
readout_number = 35

[[record]]
substance = "6mer-1-1097 (RKNCNK)"
assayed_system = "acetylcholine receptor (Homo sapiens, UniProt P02708)"
reading_unit = "Ru"
readout_number = 39

[[record]]
substance = "6mer-1-1094 (RRMAIK)"
assayed_system = "acetylcholine receptor (Homo sapiens, UniProt P02708)"
reading_unit = "Ru"
readout_number = 42

[[record]]
substance = "6mer-1-1176 (KKADHK)"
assayed_system = "acetylcholine receptor (Homo sapiens, UniProt P02708)"
reading_unit = "Ru"
readout_number = 21

[[record]]
substance = "6mer-1-1090 (KKTMWR)"
assayed_system = "acetylcholine receptor (Homo sapiens, UniProt P02708)"
reading_unit = "Ru"
readout_number = 27

[[record]]
substance = "6mer-1-1113 (RRCTMK)"
assayed_system = "acetylcholine receptor (Homo sapiens, UniProt P02708)"
reading_unit = "Ru"
readout_number = 28

[[record]]
substance = "6mer-1-1141 (KRNMHK)"
assayed_system = "acetylcholine receptor (Homo sapiens, UniProt P02708)"
reading_unit = "Ru"
readout_number = 40

[[record]]
substance = "6mer-1-1135 (KKHTER)"
assayed_system = "acetylcholine receptor (Homo sapiens, UniProt P02708)"
reading_unit = "Ru"
readout_number = 26

[[record]]
substance = "6mer-1-1086 (RKEANK)"
assayed_system = "acetylcholine receptor (Homo sapiens, UniProt P02708)"
reading_unit = "Ru"
readout_number = 22

[[record]]
substance = "6mer-1-1096 (RKPEPR)"
assayed_system = "acetylcholine receptor (Homo sapiens, UniProt P02708)"
reading_unit = "Ru"
readout_number = 23

[[record]]
substance = "6mer-1-1063 (KKIDHK)"
assayed_system = "acetylcholine receptor (Homo sapiens, UniProt P02708)"
reading_unit = "Ru"
readout_number = 25

[[record]]
substance = "6mer-1-1122 (RRTMGR)"
assayed_system = "acetylcholine receptor (Homo sapiens, UniProt P02708)"
reading_unit = "Ru"
readout_number = 33

[[record]]
substance = "6mer-1-1033 (KRHMVK)"
assayed_system = "acetylcholine receptor (Homo sapiens, UniProt P02708)"
reading_unit = "Ru"
readout_number = 30

[[record]]
substance = "6mer-1-1112 (KKDPWK)"
assayed_system = "acetylcholine receptor (Homo sapiens, UniProt P02708)"
reading_unit = "Ru"
readout_number = 27

[[record]]
substance = "6mer-1-1070 (KKTCDK)"
assayed_system = "acetylcholine receptor (Homo sapiens, UniProt P02708)"
reading_unit = "Ru"
readout_number = 24

[[record]]
substance = "6mer-1-1161 (KRHWVK)"
assayed_system = "acetylcholine receptor (Homo sapiens, UniProt P02708)"
reading_unit = "Ru"
readout_number = 40

[[record]]
substance = "6mer-1-1053 (RKYTPK)"
assayed_system = "acetylcholine receptor (Homo sapiens, UniProt P02708)"
reading_unit = "Ru"
readout_number = 27

[[record]]
substance = "6mer-1-1040 (KRIEFR)"
assayed_system = "acetylcholine receptor (Homo sapiens, UniProt P02708)"
reading_unit = "Ru"
readout_number = 28

[[record]]
substance = "6mer-1-1196 (KKTTGR)"
assayed_system = "acetylcholine receptor (Homo sapiens, UniProt P02708)"
reading_unit = "Ru"
readout_number = 25

[[record]]
substance = "6mer-1-1082 (KKTCDR)"
assayed_system = "acetylcholine receptor (Homo sapiens, UniProt P02708)"
reading_unit = "Ru"
readout_number = 37

[[record]]
substance = "6mer-1-1024 (RKTEIR)"
assayed_system = "acetylcholine receptor (Homo sapiens, UniProt P02708)"
reading_unit = "Ru"
readout_number = 36

[[record]]
substance = "6mer-1-1147 (RKAPHR)"
assayed_system = "acetylcholine receptor (Homo sapiens, UniProt P02708)"
reading_unit = "Ru"
readout_number = 35

[[record]]
substance = "6mer-1-1117 (KKEWFR)"
assayed_system = "acetylcholine receptor (Homo sapiens, UniProt P02708)"
reading_unit = "Ru"
readout_number = 40

[[record]]
substance = "6mer-1-1002 (KRIHMK)"
assayed_system = "acetylcholine receptor (Homo sapiens, UniProt P02708)"
reading_unit = "Ru"
readout_number = 29

